Cited source: patent US10626349B2

target: Myoglobin from horse heart digested with trypsin (Equus caballus, UniProt P68082); construct: Myoglobin from horse heart; from tissue; host or cells: horse heart; experiment: Myoglobin/Trypsin digest, HPLC peak area versus RapiGest control; type: biochemical; conditions: 0.01% surfactant, trypsin 50:1, 20 minutes at 37° C.; ratio to RapiGest control, >1 = more digestion
Sequence (P68082 2-154 limits assumed): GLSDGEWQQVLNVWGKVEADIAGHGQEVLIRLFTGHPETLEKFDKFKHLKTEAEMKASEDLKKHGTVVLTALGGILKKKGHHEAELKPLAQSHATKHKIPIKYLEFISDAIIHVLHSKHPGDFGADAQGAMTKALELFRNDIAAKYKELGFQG
measurement.type: surfactant Pk area/RG Pk area, Myoglobin/Trypsin digest

molecule: CCCCCCCCCCCCCCC(OC(=O)NCCCS(=O)(=O)[O-])c1ccc(OC)cc1.[Na+] (stereo not shown) [Compound 3213]
measurement.target: Myoglobin from horse heart digested with trypsin (Equus caballus, UniProt P68082)
measured.result: 0.8
//
molecule: CCCCCCCCCCCC(C)(C)OC(=O)NCC(O)CS(=O)(=O)[O-].[Na+] (stereo not shown) [Compound 3192]
measurement.target: Myoglobin from horse heart digested with trypsin (Equus caballus, UniProt P68082)
measured.result: 1.3
//
molecule: CCCCCCCCCCOc1ccc(C(OCCN(CCCCS(=O)(=O)[O-])CCCCS(=O)(=O)[O-])(c2ccccc2)c2ccc(OCCCCCCCCCC)cc2)cc1.[Na+].[Na+] [Compound 3218]
measurement.target: Myoglobin from horse heart digested with trypsin (Equus caballus, UniProt P68082)
measured.result: 0.3
//
molecule: CCCCCCCCCCC(OC(=O)NCCCS(=O)(=O)O)c1cc(OC)cc(OC)c1 (stereo not shown) [Compound 3236]
measurement.target: Myoglobin from horse heart digested with trypsin (Equus caballus, UniProt P68082)
measured.result: 1.4
